# tgt: PI3Kγ (Homo sapiens, UniProt P48736)
# Construct: HA
# Sequence (P48736 whole entry, species assumed): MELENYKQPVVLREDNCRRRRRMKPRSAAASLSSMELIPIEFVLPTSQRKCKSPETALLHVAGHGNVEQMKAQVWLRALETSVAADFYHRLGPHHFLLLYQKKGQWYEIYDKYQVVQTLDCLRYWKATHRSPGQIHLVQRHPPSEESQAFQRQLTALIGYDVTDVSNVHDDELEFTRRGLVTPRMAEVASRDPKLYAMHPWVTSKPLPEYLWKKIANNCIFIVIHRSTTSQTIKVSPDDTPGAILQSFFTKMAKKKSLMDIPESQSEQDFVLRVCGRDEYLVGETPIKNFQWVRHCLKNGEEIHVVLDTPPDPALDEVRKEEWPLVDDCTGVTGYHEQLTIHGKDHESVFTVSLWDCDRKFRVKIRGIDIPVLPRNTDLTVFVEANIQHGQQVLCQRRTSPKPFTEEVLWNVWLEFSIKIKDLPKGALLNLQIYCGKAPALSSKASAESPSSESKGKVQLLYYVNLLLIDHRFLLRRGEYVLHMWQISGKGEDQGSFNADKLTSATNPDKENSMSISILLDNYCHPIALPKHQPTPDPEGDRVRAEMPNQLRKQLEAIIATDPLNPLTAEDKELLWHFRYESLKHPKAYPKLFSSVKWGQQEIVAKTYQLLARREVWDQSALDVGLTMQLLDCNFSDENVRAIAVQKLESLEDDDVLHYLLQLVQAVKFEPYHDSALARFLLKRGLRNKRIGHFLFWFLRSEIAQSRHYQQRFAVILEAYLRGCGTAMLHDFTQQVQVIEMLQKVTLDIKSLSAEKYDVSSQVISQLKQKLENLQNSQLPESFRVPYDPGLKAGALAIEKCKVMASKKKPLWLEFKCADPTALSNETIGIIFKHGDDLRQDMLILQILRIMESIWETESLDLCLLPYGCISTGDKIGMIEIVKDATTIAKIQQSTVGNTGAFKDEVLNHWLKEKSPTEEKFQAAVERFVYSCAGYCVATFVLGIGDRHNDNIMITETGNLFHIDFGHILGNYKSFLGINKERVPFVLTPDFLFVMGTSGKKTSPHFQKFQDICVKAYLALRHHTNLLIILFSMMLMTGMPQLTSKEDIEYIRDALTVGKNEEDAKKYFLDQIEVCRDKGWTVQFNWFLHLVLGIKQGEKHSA
# Sequence (Q8WYR1 whole entry partner, species assumed): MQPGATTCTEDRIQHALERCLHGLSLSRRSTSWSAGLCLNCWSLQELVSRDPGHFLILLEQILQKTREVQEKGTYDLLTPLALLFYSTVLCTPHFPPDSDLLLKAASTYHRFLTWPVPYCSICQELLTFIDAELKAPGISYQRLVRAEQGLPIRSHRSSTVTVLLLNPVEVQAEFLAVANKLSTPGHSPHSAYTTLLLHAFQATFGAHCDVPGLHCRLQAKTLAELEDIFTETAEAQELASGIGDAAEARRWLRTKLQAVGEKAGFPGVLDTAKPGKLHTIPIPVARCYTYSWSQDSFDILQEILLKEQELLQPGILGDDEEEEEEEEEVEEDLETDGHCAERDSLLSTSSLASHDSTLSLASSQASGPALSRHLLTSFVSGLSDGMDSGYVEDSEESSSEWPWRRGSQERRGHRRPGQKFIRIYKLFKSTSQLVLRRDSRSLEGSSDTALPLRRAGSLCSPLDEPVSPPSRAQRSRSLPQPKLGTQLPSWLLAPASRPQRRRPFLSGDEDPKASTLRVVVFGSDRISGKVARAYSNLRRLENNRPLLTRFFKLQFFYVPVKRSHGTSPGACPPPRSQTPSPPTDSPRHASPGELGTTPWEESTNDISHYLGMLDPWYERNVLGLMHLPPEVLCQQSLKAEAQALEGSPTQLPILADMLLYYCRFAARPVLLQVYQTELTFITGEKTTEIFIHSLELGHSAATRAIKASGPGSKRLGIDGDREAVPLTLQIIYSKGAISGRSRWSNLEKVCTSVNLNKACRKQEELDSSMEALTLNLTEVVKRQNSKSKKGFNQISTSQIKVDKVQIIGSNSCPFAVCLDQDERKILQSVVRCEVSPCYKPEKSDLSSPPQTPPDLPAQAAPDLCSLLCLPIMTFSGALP
# method-notes: PI3Kγ in vitro kinase assay (32P-ATP, PIP2 lipid micelles, filter plate)
# details: purified recombinant p101/p110γ protein with G protein β1/γ2 subunits; 20 μM ATP; 25 μM PIP2; 20 minutes at room temperature
metric-name: log10(IC50) (log10 of the value in nM)
log10 IC50, nM

COC(=O)CCc1ccc(Sc2c(C(=O)Nc3nnn[nH]3)sc3cc(C)c(OC)cc23)cc1    3.66
COC(=O)Cc1ccc(Sc2c(C(=O)Nc3nnn[nH]3)sc3cc(C)c(OC)cc23)cc1    3.60
COc1ccc2sc(C(=O)Nc3nnn[nH]3)c(Sc3ccccc3)c2c1    3.42
COc1ccc2sc(C(=O)Nc3nnn[nH]3)c(Sc3ccccc3C)c2c1    2.67
COc1ccc2sc(C(=O)Nc3nnn[nH]3)c(Sc3ccc(Cl)cc3)c2c1    3.69

Let us examine a further case.
Problem: Form field: log10(IC50) recorded for COc1cc2c(Sc3ccc(CC(=O)O)cc3)c(C(=O)Nc3nnn[nH]3)sc2cc1C with PI3Kγ (Homo sapiens, UniProt P48736) (enter value)
Solution: 2.06

###

# tgt: PI3Kγ (Homo sapiens)
# Construct: HA
# method-notes: PI3Kγ in vitro kinase assay (32P-ATP, PIP2 lipid micelles, filter plate)
# details: purified recombinant p101/p110γ protein with G protein β1/γ2 subunits; 20 μM ATP; 25 μM PIP2; 20 minutes at room temperature
Entries and their pIC50
// returns pIC50 (minus log10 of molar concentration), number only

COc1cc2sc(C(=O)Nc3nnn[nH]3)c(Sc3ccc(CC(=O)O)cc3)c2cc1OC    5.58
COc1cc2sc(C(=O)Nc3nnn[nH]3)c(Sc3ccc(CC(=O)O)cc3)c2cc1C    5.88
COc1cc2sc(C(=O)Nc3nnn[nH]3)c(Sc3ccccc3)c2cc1OC    7.22
COc1cc2sc(C(=O)Nc3nnn[nH]3)c(SCc3ccc(C(=O)O)cc3)c2cc1C    6.31

Problem: Form field: pIC50 recorded for CCOc1ccc2sc(C(=O)Nc3nnn[nH]3)c(Sc3ccc(CC(=O)O)cc3)c2c1 with PI3Kγ (Homo sapiens) (enter value)
Solution: 5.57

Problem: Item: COC(=O)Cc1ccc(Sc2c(C(=O)Nc3nnn[nH]3)sc3cc(OC)c(C)cc23)cc1
Solution: 5.90

Problem: Item: COc1cc2sc(C(=O)Nc3nnn[nH]3)c(Sc3cccc(Cl)c3)c2cc1C
Solution: 6.33

Problem: Item: COc1cc2sc(C(=O)Nc3nnn[nH]3)c(Sc3ccc(O)cc3)c2cc1OC
Solution: 5.73

Problem: Item: COc1cc2sc(C(=O)Nc3nnn[nH]3)c(Sc3ccc(Cl)cc3)c2cc1OC
Solution: 5.43

Problem: Item: COCc1cc2sc(C(=O)Nc3nnn[nH]3)c(Sc3ccccc3)c2cc1OC
Solution: 6.50

###

# tgt: PI3Kγ (Homo sapiens, UniProt P48736)
# Construct: HA
# method-notes: PI3Kγ in vitro kinase assay (32P-ATP, PIP2 lipid micelles, filter plate)
# details: purified recombinant p101/p110γ protein with G protein β1/γ2 subunits; 20 μM ATP; 25 μM PIP2; 20 minutes at room temperature
Entries and their IC50

Worked cases, answers included:
COc1cc2sc(C(=O)Nc3nnn[nH]3)c(Sc3ccc(CCC(=O)O)cc3)c2cc1OC [Example 62]    2.67 µM
COc1ccc(OC)c(Sc2c(C(=O)Nc3nnn[nH]3)sc3cc(OC)c(OC)cc23)c1 [Example 15]    0.62 µM
COc1cc2sc(C(=O)Nc3nnn[nH]3)c(Sc3cccc(Cl)c3)c2cc1OC [Example 7]    1.99 µM
COc1cc2sc(C(=O)Nc3nnn[nH]3)c(Sc3cccc(C(F)(F)F)c3)c2cc1OC [Example 50]    3.38 µM
COc1cc2sc(C(=O)Nc3nnn[nH]3)c(Sc3cccc(C(F)(F)F)c3)c2cc1C [Example 42]    2.17 µM
COc1cc2sc(C(=O)Nc3nnn[nH]3)c(Sc3ccc(C(=O)O)cc3)c2cc1C [Example 58]    1.34 µM

Problem: For the compound shown here, COc1ccc2sc(C(=O)Nc3nnn[nH]3)c(Sc3ccc4c(c3)OCO4)c2c1 [Example 27] , give the reported IC50.
Solution: 1.69 µM

Problem: Item: COc1cc2sc(C(=O)Nc3nnn[nH]3)c(Sc3ccccc3C)c2cc1OC [Example 5]
Solution: 1.27 µM
